From: patent US20170015742A1

Entries annotated with measured IC50
Biological target: T1, recombinant human VEGF-R2-Fc (human, UniProt P35968 20-764)
T1 construct: Bought Fc fusion (R&D Systems cat#357-KD); also called hVEGFR2-Fc; VEGF-R2 (KDR/Flk-1); not shown: Fc part of the bought fusion protein
T1 sequence (P35968 20-764 limits assumed): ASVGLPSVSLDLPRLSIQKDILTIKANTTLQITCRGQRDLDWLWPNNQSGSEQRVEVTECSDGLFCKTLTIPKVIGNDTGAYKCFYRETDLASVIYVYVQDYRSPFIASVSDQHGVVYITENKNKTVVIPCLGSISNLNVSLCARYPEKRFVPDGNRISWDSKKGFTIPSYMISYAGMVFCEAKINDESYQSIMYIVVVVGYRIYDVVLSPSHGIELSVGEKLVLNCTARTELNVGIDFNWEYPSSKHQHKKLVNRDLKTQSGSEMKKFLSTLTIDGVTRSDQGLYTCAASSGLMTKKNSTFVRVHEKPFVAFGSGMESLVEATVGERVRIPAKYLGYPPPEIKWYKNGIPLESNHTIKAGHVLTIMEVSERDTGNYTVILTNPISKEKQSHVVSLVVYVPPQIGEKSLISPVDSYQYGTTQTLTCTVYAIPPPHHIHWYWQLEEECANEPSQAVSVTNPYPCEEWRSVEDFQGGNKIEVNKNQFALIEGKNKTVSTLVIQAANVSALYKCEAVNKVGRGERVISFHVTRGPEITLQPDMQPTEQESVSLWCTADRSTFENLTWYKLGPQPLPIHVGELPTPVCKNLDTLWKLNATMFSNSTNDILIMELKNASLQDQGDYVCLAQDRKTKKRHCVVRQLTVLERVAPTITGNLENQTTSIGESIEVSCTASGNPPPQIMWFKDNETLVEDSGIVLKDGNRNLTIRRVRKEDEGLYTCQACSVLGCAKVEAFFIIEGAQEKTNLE
Assay: competition ELISA: antibody added to coated hVEGF-R2-Fc, then biotinylated hVEGF165 (competitor)
Form entry: value (pM) — number only.

Examples with answers:
binder	valueType	unitTag	testValue
hBCU-6B1.3 (antibody, V domains shown, Humanized anti-human VEGFR II IgG from pHybE expression vectors) VH: EVQLVQSGAEVKKPGASVKVSCKASGYTFTNYGMYWVRQAPGQGLEFMGWINTETGQPTYADDFKGRFTFTLDTSTSTAYMELRSLRSDDTAVYYCARLGNNYGIWFAYWGQGTLVTVSS VL: DIQMTQSPSSLSASVGDRVTIECRASDDLYSTLAWYQQKPGKSPKLLIFDANRLAAGVPSRFSGSGSGTDYSLTISSLQPEDVATYFCQQYNKFPWTFGGGTKVEIK	IC50	pM	319
hBCU-6B1.2 (antibody, V domains shown, Humanized anti-human VEGFR II IgG from pHybE expression vectors) VH: EVQLVQSGAEVKKPGASVKVSCKASGYTFTNYGMYWVKQAPGQGLEFMGWINTETGQPTYADDFKGRFTFTLDTSTSTAYMELRSLRSDDTAVYFCARLGNNYGIWFAYWGQGTLVTVSS VL: DIQMTQSPSSLSASVGDRVTIECRASDDLYSTLAWYQQKPGKSPKLLIFDANRLAAGVPSRFSGSGSGTDYSLTISSLQPEDVATYFCQQYNKFPWTFGGGTKVEIK	IC50	pM	340

Look up IC50 for this binder: hBCU-6B1.1 (antibody, V domains shown, Humanized anti-human VEGFR II IgG from pHybE expression vectors) VH: EVQLVQSGSELKKPGASVKVSCKASGYTFTNYGMYWVKQAPGQGLEFMGWINTETGQPTYADDFKGRFVFSLDTSVSTAYLQISSLKAEDTAVYFCARLGNNYGIWFAYWGQGTLVTVSS VL: DIQMTQSPSSLSASVGDRVTIECRASDDLYSTLAWYQQKPGKSPKLLIFDANRLAAGVPSRFSGSGSGTDYSLTISSLQPEDVATYFCQQYNKFPWTFGGGTKVEIK
474
